B1: TPR t1 (parent)
chain: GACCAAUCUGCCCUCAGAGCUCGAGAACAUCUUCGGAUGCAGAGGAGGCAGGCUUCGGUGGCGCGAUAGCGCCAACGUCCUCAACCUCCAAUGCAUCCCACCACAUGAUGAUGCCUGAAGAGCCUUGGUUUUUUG

- Variants of: B1
- PROCEDURE SUMMARY: polymerase ribozyme fitness, log enrichment relative to wild type (log ratio); higher = more active; in vitro selection for triplet polymerase activity
// bucketize polymerase ribozyme fitness (log ratio): low bin (below -3), mid bin (-3 to below -1), high bin (-1 or more)

SEQUENCE DATA	QUALITATIVE LABEL
GAGCAAUCUGCCCUCAGAGCUCGAGAACAUCUUCGGAUGCAGAGGAGGCAGGCUUUGGUGGCGCGAUAGCGCCAACGUCCUCAACCUCCAAGGCAUCCCACCACAUGAUGAUGCCUGAAGAGACUUGGUUUUUUG [C3G C56U U92G C123A]	low bin
GACCAAUCUGCCCUCAGAGCUCGAGUACAUCUUCGGAUGCAGAUGAGGCAGGCUUCGGUGGCGGGAUAGCGCCAACGUCCUCAACCUCUAAUGCAUCCCACCACAUGAUGAGGCCUGAAGAGCCUUGGUUUUUUG [A26U G44U C64G C89U U112G]	low bin
GACCAAUCUGCCCUCAGAGCUCGAGAACAUCAUCGGAUGCAGAGGAGGCAGGCUUCGGUGGCGCGAUAGUGCCAACGUCCUCAACCUCCAAUGCAUCCCACCACAUGAUGAUGCGUGAAGAGCCUUGGUUUUUUG [U32A C70U C115G]	low bin

Exercise: Record GACCAAUCUGCCCUCAGAGCUCGAGAACAUCUUCGGAUGCAGAGGAGGCAGGCUUCGGUGGCGCGAUAGCGCCAACGUCCUCCACCUCCAAUGCAUCCCAACACAUGAUGAUGCCUGAAGAGCCUUGGUUUUUUG [A83C C101A] — which class?
Solution: mid bin

Exercise: // repeat for GACCAAUCUGCCCUCAGAGCUCGAGAACAUCUUCGGAUGCAGAGGAGGCAGGCUUCGGUGGCGCGAUAGCGCCAACGCCUUCAACCUCCAAUGCAUCCCACCACAUGAUGAUGCCUGAAGAGCCUUGGUUUUUUG [U78C C80U] and report
Solution: high bin
